Here the recorded IC50 is given for each entry.
# Target Or Test System: IDH1 R132H enzyme (Homo sapiens (Human), UniProt O75874, R132H)
# Sequence (O75874 whole entry R132H): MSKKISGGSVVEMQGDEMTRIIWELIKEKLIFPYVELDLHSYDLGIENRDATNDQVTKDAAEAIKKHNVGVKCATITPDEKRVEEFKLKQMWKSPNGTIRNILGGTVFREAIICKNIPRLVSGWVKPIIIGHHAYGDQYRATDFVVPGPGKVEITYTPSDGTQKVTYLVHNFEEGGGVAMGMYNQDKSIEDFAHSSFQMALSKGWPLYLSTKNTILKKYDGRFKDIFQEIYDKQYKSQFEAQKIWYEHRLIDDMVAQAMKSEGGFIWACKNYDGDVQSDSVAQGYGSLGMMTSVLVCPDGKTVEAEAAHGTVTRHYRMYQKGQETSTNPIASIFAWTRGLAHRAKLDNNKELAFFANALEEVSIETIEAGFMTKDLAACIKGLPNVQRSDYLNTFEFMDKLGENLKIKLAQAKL
# Experimental Protocol: Mutant IDH1 R132H biochemical assay
# Assay Conditions: luminescent NADPH consumption readout; 1.5 nM enzyme, 1 μM NADPH, 250 μM α-KG, 30 min, 32° C.

Molecule: CC(C)[C@@H]1CC[C@@H](C)C[C@H]1n1c(Nc2ccc(OC(F)(F)F)cc2)nc2cc(C(C)(C)O)ccc21
IC50 [nM]: 80
--
Molecule: C[C@@H]1C[C@H](n2c(Nc3ccc(OC(F)(F)F)cc3)nc3cc(CC(C)(C)O)c(F)cc32)CC(C)(C)C1 (single isomer, unassigned; enantiomer a) [Example 2-10-1]
IC50 [nM]: 320
--
Molecule: C[C@@H]1C[C@H](n2c(Nc3ccc(OC(F)(F)F)cc3)nc3cc(CO)ccc32)CC(C)(C)C1 (single isomer, unassigned; enantiomer a) [Example 2-1-1]
IC50 [nM]: 50
--
Molecule: CC(C)Oc1ccc(Nc2nc3cc(CC(C)(C)O)ccc3n2[C@@H]2C[C@H](C)CC[C@H]2C(C)C)cc1
IC50 [nM]: 160
--
Molecule: Cc1cc2c(cc1CC(C)(C)O)nc(Nc1ccc(OC(F)(F)F)cc1)n2[C@H]1C[C@@H](C)CC(C)(C)C1 (racemic) [Example 2-8]
IC50 [nM]: 30
--
Molecule: C[C@@H]1C[C@H](n2c(Nc3ccc(OC(F)(F)F)cc3)nc3cc(CCC(C)(C)O)ccc32)CC(C)(C)C1 (single isomer, unassigned; enantiomer a)
IC50 [nM]: 210
--
Molecule: CC(C)Oc1ccc(Nc2nc3cc(CCC(C)(C)O)ccc3n2[C@@H]2C[C@H](C)CC[C@H]2C(C)C)cc1
IC50 [nM]: 300
--
Molecule: COc1cc2c(cc1CC(C)(C)O)nc(Nc1ccc(OC(F)(F)F)cc1)n2[C@H]1C[C@@H](C)CC(C)(C)C1 (single isomer, unassigned; enantiomer a) [Example 2-9-1]
IC50 [nM]: 30
--
Molecule: COc1cc2c(cc1CO)nc(Nc1ccc(OC(F)(F)F)cc1)n2[C@H]1C[C@@H](C)CC(C)(C)C1 (single isomer, unassigned; enantiomer a) [Example 2-6-1]
IC50 [nM]: 20
--
Molecule: COc1cc2c(cc1CC(C)(C)O)nc(Nc1ccc(OC(F)(F)F)cc1)n2[C@H]1C[C@@H](C)CC(C)(C)C1 (racemic) [Example 2-9]
IC50 [nM]: 20
--
Molecule: COc1cc2c(cc1CC(C)(C)O)nc(Nc1ccc(OC(F)(F)F)cc1)n2[C@H]1C[C@@H](C)CC(C)(C)C1 (single isomer, unassigned; enantiomer b) [Example 2-9-2]
IC50 [nM]: 10
--
Molecule: COc1cc2c(cc1CCC(C)(C)O)nc(Nc1ccc(OC(F)(F)F)cc1)n2[C@H]1C[C@@H](C)CC(C)(C)C1 (single isomer, unassigned; enantiomer a) [Example 2-12-1]
IC50 [nM]: 50
--
Molecule: CC(C)[C@@H]1CC[C@@H](C)C[C@H]1n1c(Nc2ccc(OC(F)(F)F)cc2)nc2cc(CCC(C)(C)O)ccc21
IC50 [nM]: 100
--
Molecule: COc1cc2c(cc1C(C)(C)O)nc(Nc1ccc(OC(F)(F)F)cc1)n2[C@H]1C[C@@H](C)CC(C)(C)C1 (racemic) [Example 2-7]
IC50 [nM]: 20
--
Molecule: CC(C)[C@@H]1CC[C@@H](C)C[C@H]1n1c(Nc2ccc(OC(F)(F)F)cc2)nc2cc(CC(C)(C)O)ccc21
IC50 [nM]: 40
--
Molecule: C[C@@H]1C[C@H](n2c(Nc3ccc(OC(F)(F)F)cc3)nc3cc(C(C)(C)O)ccc32)CC(C)(C)C1 (single isomer, unassigned; enantiomer b)
IC50 [nM]: 40
--
Molecule: C[C@@H]1C[C@H](n2c(Nc3ccc(OC(F)(F)F)cc3)nc3cc(CC(C)(C)O)c(F)cc32)CC(C)(C)C1 (racemic) [Example 2-10]
IC50 [nM]: 240
--
Molecule: Cc1cc2c(cc1C(C)(C)O)nc(Nc1ccc(OC(F)(F)F)cc1)n2[C@H]1C[C@@H](C)CC(C)(C)C1 (single isomer, unassigned; enantiomer a) [Example 2-3-1]
IC50 [nM]: 80
--
Molecule: Cc1cc2c(cc1[C@@H](O)C(F)(F)F)nc(Nc1ccc(OC(F)(F)F)cc1)n2C1CC(C)(C)CC(C)(C)C1 (racemic)
IC50 [nM]: 30
--
Molecule: Cc1cc2c(cc1CC(C)(C)O)nc(Nc1ccc(OC(F)(F)F)cc1)n2[C@H]1C[C@@H](C)CC(C)(C)C1 (single isomer, unassigned; enantiomer b) [Example 2-8-2]
IC50 [nM]: 10
--
Molecule: COc1cc2c(cc1C(C)(C)O)nc(Nc1ccc(OC(F)(F)F)cc1)n2[C@H]1C[C@@H](C)CC(C)(C)C1 (single isomer, unassigned; enantiomer a) [Example 2-7-1]
IC50 [nM]: 50
--
Molecule: COc1cc2c(cc1CO)nc(Nc1ccc(OC(F)(F)F)cc1)n2[C@H]1C[C@@H](C)CC(C)(C)C1 (single isomer, unassigned; enantiomer b) [Example 2-6-2]
IC50 [nM]: 110
